Data provenance is ChEMBL document CHEMBL1268892.

Recorded log10(Ki) for the following compounds
Target: Lethal factor (Bacillus anthracis)
Sequence (P15917 whole entry): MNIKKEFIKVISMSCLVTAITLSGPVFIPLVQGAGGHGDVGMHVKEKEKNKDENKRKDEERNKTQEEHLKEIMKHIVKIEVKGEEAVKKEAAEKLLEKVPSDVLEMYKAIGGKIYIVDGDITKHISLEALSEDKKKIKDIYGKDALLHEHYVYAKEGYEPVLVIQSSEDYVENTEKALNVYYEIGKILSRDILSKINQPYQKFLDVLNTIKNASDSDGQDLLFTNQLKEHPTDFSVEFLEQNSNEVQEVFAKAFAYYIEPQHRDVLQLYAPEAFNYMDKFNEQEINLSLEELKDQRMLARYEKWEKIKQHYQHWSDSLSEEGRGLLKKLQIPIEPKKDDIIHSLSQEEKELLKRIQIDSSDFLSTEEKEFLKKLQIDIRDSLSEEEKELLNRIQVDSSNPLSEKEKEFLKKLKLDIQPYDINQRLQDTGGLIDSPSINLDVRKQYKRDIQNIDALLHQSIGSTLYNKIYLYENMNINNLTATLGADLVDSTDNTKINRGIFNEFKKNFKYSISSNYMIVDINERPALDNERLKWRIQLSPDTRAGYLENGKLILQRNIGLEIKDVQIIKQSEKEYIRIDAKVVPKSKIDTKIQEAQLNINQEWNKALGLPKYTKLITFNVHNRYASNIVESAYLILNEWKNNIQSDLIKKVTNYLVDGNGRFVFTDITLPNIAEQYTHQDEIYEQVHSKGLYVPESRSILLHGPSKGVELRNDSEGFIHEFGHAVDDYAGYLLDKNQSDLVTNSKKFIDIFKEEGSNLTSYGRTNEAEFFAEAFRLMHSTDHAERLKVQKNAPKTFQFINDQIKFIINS
In our notation, the value equals log10 of Ki in nM.

Here's what some known entries look like.
CO[C@H](C[C@H](CCN(C)Cc1ccc(-c2ccc(F)c(C)c2)cc1)C(=O)NO)c1ccc(F)cc1: 2.13
CO[C@H](C[C@H](CCN1CCCC(CO)C1)C(=O)NO)c1ccc(F)cc1 (stereo not given in full): 2.00
CO[C@H](C[C@H](CCN(C)C)C(=O)NO)c1ccc(F)cc1: 1.98
CO[C@H](C[C@H](CCN1CCCCC1)C(=O)NO)c1ccc(F)cc1: 2.36
CO[C@H](C[C@H](CCN1CCCC1)C(=O)NO)c1ccc(F)cc1: 2.09

stdin: Item `Cc1ccc(CNCCCC[C@@H](Nc2cc(C)c(F)c(C)c2)C(=O)NO)cc1` with Lethal factor (Bacillus anthracis) - log10(Ki)?
stdout: -0.39

stdin: Param item: `Cc1cc(N[C@H](CCCCNCc2cccc(F)c2)C(=O)NO)cc(C)c1F`
stdout: -0.07

stdin: Now give it for `CO[C@H](C[C@H](CCN1CCN(c2ccccc2)CC1)C(=O)NO)c1ccc(F)cc1` too.
stdout: 2.18

stdin: Subsequent entry: `COc1ccc(CNCCCC[C@@H](Nc2cc(C)c(F)c(C)c2)C(=O)NO)cc1`
stdout: -0.36

stdin: Please answer likewise for `Cc1cc(C(=O)NCCCC[C@@H](Nc2cc(C)c(F)c(C)c2)C(=O)NO)ccc1F`
stdout: 0.86
